# METHOD_NOTES: Pharmacokinetics in rat plasma after single subcutaneous administration (LC-MS/MS, non-compartmental analysis)
# Assay type: in vivo, Sprague-Dawley (SD) rats
# CONDITION: Sprague-Dawley, rat, in vivo, sc; SD rats, single s.c. dose 8 mg/kg, plasma, LC-MS/MS, NCA, n = 5
Positions of bridges follow the written chain, without caps; N, C: chain ends. Non-standard residues stand in square brackets, D forms with d. Residues, ends and D or L forms follow the SMILES beside them. *: point of attachment. X1 = CC[C@H](C)CCCCC(=O)*; Dab = NCC[C@H](N)C(=O)O
REPORTED_ENDPOINT: Cmax (ng/mL)

INSERT INTO results (compound, assay_result) VALUES
  ('CC[C@H](C)CCCCC(=O)N[C@@H](CCN)C(=O)N[C@H](C(=O)N[C@@H](CCN)C(=O)N[C@H]1CCNC(=O)[C@H]([C@@H](C)O)NC(=O)[C@H](CCN)NC(=O)[C@H](CCN)NC(=O)[C@H](CC(C)C)NC(=O)[C@@H](Cc2ccccc2)NC(=O)[C@H](CCN)NC1=O)[C@@H](C)O [PMB, polymyxin B] (X1-[Dab]T[Dab][Dab][Dab][dF]L[Dab][Dab]T; lactam 4-C)', 3150);

* * *

# METHOD_NOTES: Pharmacokinetics in rat plasma after single subcutaneous administration (LC-MS/MS, non-compartmental analysis)
# Format: in vivo, Sprague-Dawley (SD) rats
# CONDITION: Sprague-Dawley, rat, in vivo, sc; SD rats, single s.c. dose 4 mg/kg, plasma, LC-MS/MS, NCA, n = 5
Positions of bridges follow the written chain, without caps; N, C: chain ends. Non-standard residues stand in square brackets, D forms with d. Residues, ends and D or L forms follow the SMILES beside them. *: point of attachment. X1 = CC[C@H](C)CCCCC(=O)*; Dab = NCC[C@H](N)C(=O)O
REPORTED_ENDPOINT: Cmax (ng/mL)

INSERT INTO measurements (molecule, assay_result) VALUES
  ('CC[C@H](C)CCCCC(=O)N[C@@H](CCN)C(=O)N[C@H](C(=O)N[C@@H](CCN)C(=O)N[C@H]1CCNC(=O)[C@H]([C@@H](C)O)NC(=O)[C@H](CCN)NC(=O)[C@H](CCN)NC(=O)[C@H](CC(C)C)NC(=O)[C@@H](Cc2ccccc2)NC(=O)[C@H](CCN)NC1=O)[C@@H](C)O [PMB, polymyxin B] (X1-[Dab]T[Dab][Dab][Dab][dF]L[Dab][Dab]T; lactam 4-C)', 1770);
